Experiment: Pharmacokinetics in Sprague Dawley rats, repeat oral administration for 15 days
Format: in vivo, rat
Conditions: male, Sprague-Dawley, rat, plasma, po, 1 mg/kg, SD rats, oral gavage once daily, Day 15, 1 mg/kg, Male, n = 4; read-out: AUC24
Protocol: The pharmacokinetics of Compound 102 following repeat oral administration for 15 days was evaluated in Sprague-Dawley rats. A total of 30 rats (15 males and 15 females) were divided into three dose groups (5 males/5 females). […] 50 μL of plasma was extracted with 250 μL of acetonitrile and the plasma concentration of Compound 102 was determined by an LC-MS/MS method. The plasma concentration time data were analyzed by a non-compartmental pharmacokinetic method using WinNonlin. […]

| COMPOUND STRING | AUC, ng·h/mL |
| --- | --- |
| N#Cc1ccc(N2CCC[C@@H]2[C@@H](O)C(F)(F)F)cc1C(F)(F)F | 288 |
